Measured values drawn from ChEMBL document CHEMBL1909046 for this set.

# System Under Test: Neuropeptide Y receptor type 1 (Homo sapiens, UniProt P25929); also: in other assays of this panel Not Active means under 50% inhibition at 10 µM
# Sequence (P25929 whole entry): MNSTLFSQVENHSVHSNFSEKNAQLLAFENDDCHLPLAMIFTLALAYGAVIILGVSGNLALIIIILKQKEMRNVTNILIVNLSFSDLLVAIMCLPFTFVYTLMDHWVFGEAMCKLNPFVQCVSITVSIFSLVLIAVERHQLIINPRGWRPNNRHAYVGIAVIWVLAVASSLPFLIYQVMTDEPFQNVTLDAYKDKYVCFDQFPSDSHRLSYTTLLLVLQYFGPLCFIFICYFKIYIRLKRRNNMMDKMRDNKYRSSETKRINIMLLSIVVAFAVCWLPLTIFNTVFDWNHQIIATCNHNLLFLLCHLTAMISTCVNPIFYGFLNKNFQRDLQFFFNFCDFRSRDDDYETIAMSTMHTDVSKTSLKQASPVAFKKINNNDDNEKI
# Type: cell membranes, Membrane
# Study Conditions: sk-n-mc
Observed Property: IC50

Some solved entries appear below for comparison.
Molecule | System Under Test | IC50
Nc1ccc(Cc2ccc(N)cc2)cc1 | Neuropeptide Y receptor type 1 (Homo sapiens, UniProt P25929) | Not Active
NC(=O)CN1CCCC1=O | Neuropeptide Y receptor type 1 (Homo sapiens, UniProt P25929) | Not Active
NC(=O)NC(=O)Cc1ccccc1 [PHENACEMIDE] | Neuropeptide Y receptor type 1 (Homo sapiens, UniProt P25929) | Not Active
C[N+](C)(C)CCOP(=O)([O-])OC[C@H](O)CO | Neuropeptide Y receptor type 1 (Homo sapiens, UniProt P25929) | Not Active

Request the reported IC50 associated with O=C(c1ccccc1)c1ccc2n1CCC2C(=O)O (stereo unspecified)
Not Active

# repeat for O=C(O)c1cc(/N=N/c2ccc(S(=O)(=O)Nc3ccccn3)cc2)ccc1O
Not Active
